All figures here come from paper PMC9518244.

# measured-target: 5-LOX (Glycine max, UniProt P08170)
# Sequence (P08170 whole entry): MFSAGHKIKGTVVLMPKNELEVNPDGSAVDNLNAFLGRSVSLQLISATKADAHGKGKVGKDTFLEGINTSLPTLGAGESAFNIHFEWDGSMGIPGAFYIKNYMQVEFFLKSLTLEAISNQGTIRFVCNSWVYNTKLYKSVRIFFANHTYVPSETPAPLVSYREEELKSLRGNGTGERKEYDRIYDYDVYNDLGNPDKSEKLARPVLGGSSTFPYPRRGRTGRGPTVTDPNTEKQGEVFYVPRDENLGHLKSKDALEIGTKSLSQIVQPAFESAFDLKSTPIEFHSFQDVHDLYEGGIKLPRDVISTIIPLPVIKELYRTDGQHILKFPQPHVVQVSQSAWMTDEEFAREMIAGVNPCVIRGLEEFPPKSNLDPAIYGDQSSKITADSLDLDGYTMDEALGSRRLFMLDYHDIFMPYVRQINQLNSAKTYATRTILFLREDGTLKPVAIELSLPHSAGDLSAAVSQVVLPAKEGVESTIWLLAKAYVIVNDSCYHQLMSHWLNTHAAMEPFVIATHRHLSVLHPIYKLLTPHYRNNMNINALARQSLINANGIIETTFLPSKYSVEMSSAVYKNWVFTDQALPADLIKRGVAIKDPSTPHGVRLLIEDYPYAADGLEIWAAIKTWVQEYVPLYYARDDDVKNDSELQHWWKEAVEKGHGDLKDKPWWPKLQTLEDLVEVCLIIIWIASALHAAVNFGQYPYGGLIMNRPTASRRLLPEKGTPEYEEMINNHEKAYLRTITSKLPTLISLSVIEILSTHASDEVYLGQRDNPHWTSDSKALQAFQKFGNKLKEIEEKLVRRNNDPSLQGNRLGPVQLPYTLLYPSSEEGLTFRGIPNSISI
# assay-method-text: 5-LOX immobilised on TiO2 nanotubes microreactor screening (HPLC peak area ratio)
# Assay type: binding
# experimental-context: analytes of LLJT extract eluted from immobilised 5-LOX, HPLC-MS
# Bonding rate (%) per entry
measured-attribute: Bonding rate (%)

>>> result_value("C[C@@H]1O[C@@H](O[C@H]2[C@H](Oc3cc(O)c4c(=O)cc(-c5ccc(O)c(O)c5)oc4c3)O[C@H](CO)[C@@H](O)[C@@H]2O)[C@H](O)[C@H](O)[C@H]1O [Lonicerin, lonicerin]")
23.42
>>> result_value("O=C(/C=C/c1ccc(O)c(O)c1)O[C@H]1[C@H](O)C[C@](O)(C(=O)O)C[C@H]1OC(=O)/C=C/c1ccc(O)c(O)c1 [Isochlorogenic acid C, isochlorogenic acid C]")
6.34
>>> result_value("O=c1cc(-c2ccc(O)c(O)c2)oc2cc(O[C@@H]3O[C@H](CO)[C@@H](O)[C@H](O)[C@H]3O)cc(O)c12 [Luteoloside, luteoloside]")
8.87
>>> result_value("O=c1cc(-c2ccc(O)c(O)c2)oc2cc(O)cc(O)c12 [Luteolin, luteolin]")
34.85

###

# assay-method-text: Cytotoxicity assay (CCK-8) in RAW264.7 cells
# Format: cell-based, mouse
# experimental-context: mouse, RAW264.7 cells, 40 μmol/L, LPS 100 ng/mL; read-out: Cell viability (%)
# viability at 24 h, 40 μmol/L per entry
measured-attribute: viability at 24 h, 40 μmol/L (%)

>>> result_value("C[C@@H]1O[C@@H](O[C@H]2[C@H](Oc3cc(O)c4c(=O)cc(-c5ccc(O)c(O)c5)oc4c3)O[C@H](CO)[C@@H](O)[C@@H]2O)[C@H](O)[C@H](O)[C@H]1O")
204
>>> result_value("O=c1cc(-c2ccc(O)c(O)c2)oc2cc(O)cc(O)c12")
33.4

###

# assay-method-text: Cytotoxicity assay (CCK-8) in RAW264.7 cells
# Assay type: cell-based, mouse
# experimental-context: mouse, RAW264.7 cells, 1 μmol/L, LPS 100 ng/mL; read-out: Cell viability (%)
measured-attribute: viability at 24 h, 1 μmol/L

>>> result_value("O=c1cc(-c2ccc(O)c(O)c2)oc2cc(O)cc(O)c12 [Luteolin, luteolin]")
"195%"

###

# assay-method-text: Cytotoxicity assay (CCK-8) in RAW264.7 cells
# Format: cell-based, mouse
# experimental-context: mouse, RAW264.7 cells, 2 μmol/L, LPS 100 ng/mL; read-out: Cell viability (%)
measured-attribute: viability at 24 h, 2 μmol/L

>>> result_value("O=c1cc(-c2ccc(O)c(O)c2)oc2cc(O)cc(O)c12")
"199%"

###

# assay-method-text: Cytotoxicity assay (CCK-8) in RAW264.7 cells
# Format: cell-based
# experimental-context: mouse, no LPS, read-out: Cell viability (%)
measured-attribute: viability at 24 h, 2 μmol/L

>>> result_value("O=c1cc(-c2ccc(O)c(O)c2)oc2cc(O)cc(O)c12")
"104%"

###

# assay-method-text: Cytotoxicity assay (CCK-8) in RAW264.7 cells
# Assay type: cell-based, mouse
# experimental-context: mouse, RAW264.7 cells, 20 μmol/L, no LPS; read-out: Cell viability (%)
# viability at 24 h, 20 μmol/L per entry
measured-attribute: viability at 24 h, 20 μmol/L (%)

>>> result_value("C[C@@H]1O[C@@H](O[C@H]2[C@H](Oc3cc(O)c4c(=O)cc(-c5ccc(O)c(O)c5)oc4c3)O[C@H](CO)[C@@H](O)[C@@H]2O)[C@H](O)[C@H](O)[C@H]1O [Lonicerin, lonicerin]")
196
>>> result_value("O=c1cc(-c2ccc(O)c(O)c2)oc2cc(O)cc(O)c12 [Luteolin, luteolin]")
49.5

###

# Test system: RAW264.7 cells
# assay-method-text: NO production in LPS-stimulated RAW264.7 cells (NO kit)
# Type: cell-based, mouse
# experimental-context: LPS 100 ng/mL, compared with the model group
measured-attribute: LPS-induced NO release in RAW264.7 cells (in words)

>>> result_value("O=c1cc(-c2ccc(O)c(O)c2)oc2cc(O[C@@H]3O[C@H](CO)[C@@H](O)[C@H](O)[C@H]3O)cc(O)c12 [Luteoloside, luteoloside]")
"failed to inhibit"
>>> result_value("O=c1cc(-c2ccc(O)c(O)c2)oc2cc(O)cc(O)c12")
"failed to inhibit"

###

# assay-method-text: Cytotoxicity assay (CCK-8) in RAW264.7 cells
# Assay type: cell-based, mouse
# experimental-context: mouse, RAW264.7 cells, 20 μmol/L, LPS 100 ng/mL; read-out: Cell viability (%)
# Experimental: For cytotoxicity assay, RAW264.7 cells were seeded in 96-well plates at an inoculation amount of 3 × 10^4/well, and the medium was changed after culturing for 24 h at 37 °C and 5% […] concentration (20 μM, 40 μM and 60 μM) of sample solution prepared with fresh medium was added dropwise to 96-well plate. […] 10 μL of CCK-8 reagent was added at room temperature in the dark, and the absorbance was measured at a wavelength of 450 nm after 1 h. […]
# viability at 24 h, 20 μmol/L per entry
measured-attribute: viability at 24 h, 20 μmol/L (%)

>>> result_value("C[C@@H]1O[C@@H](O[C@H]2[C@H](Oc3cc(O)c4c(=O)cc(-c5ccc(O)c(O)c5)oc4c3)O[C@H](CO)[C@@H](O)[C@@H]2O)[C@H](O)[C@H](O)[C@H]1O")
216
>>> result_value("O=c1cc(-c2ccc(O)c(O)c2)oc2cc(O)cc(O)c12")
52.6

###

# assay-method-text: Cytotoxicity assay (CCK-8) in RAW264.7 cells
# Assay type: cell-based, mouse
# experimental-context: mouse, RAW264.7 cells, 40 μmol/L, no LPS; read-out: Cell viability (%)
# Method: For cytotoxicity assay, RAW264.7 cells were seeded in 96-well plates at an inoculation amount of 3 × 10^4/well, and the medium was changed after culturing for 24 h at 37 °C and 5% […] concentration (20 μM, 40 μM and 60 μM) of sample solution prepared with fresh medium was added dropwise to 96-well plate. […] 10 μL of CCK-8 reagent was added at room temperature in the dark, and the absorbance was measured at a wavelength of 450 nm after 1 h. […]
measured-attribute: viability at 24 h, 40 μmol/L (%)

>>> result_value("O=c1cc(-c2ccc(O)c(O)c2)oc2cc(O)cc(O)c12")
22
>>> result_value("C[C@@H]1O[C@@H](O[C@H]2[C@H](Oc3cc(O)c4c(=O)cc(-c5ccc(O)c(O)c5)oc4c3)O[C@H](CO)[C@@H](O)[C@@H]2O)[C@H](O)[C@H](O)[C@H]1O")
180

###

# assay-method-text: Cytotoxicity assay (CCK-8) in RAW264.7 cells
# Assay type: cell-based, mouse
# experimental-context: mouse, RAW264.7 cells, 1 μmol/L, no LPS; read-out: Cell viability (%)
measured-attribute: viability at 24 h, 1 μmol/L

>>> result_value("O=c1cc(-c2ccc(O)c(O)c2)oc2cc(O)cc(O)c12")
"120%"

###

# assay-method-text: Cytotoxicity assay (CCK-8) in RAW264.7 cells
# Assay type: cell-based, mouse
# experimental-context: mouse, RAW264.7 cells, 60 μmol/L, LPS 100 ng/mL; read-out: Cell viability (%)
# viability at 24 h, 60 μmol/L per entry
measured-attribute: viability at 24 h, 60 μmol/L (%)

>>> result_value("O=c1cc(-c2ccc(O)c(O)c2)oc2cc(O)cc(O)c12 [Luteolin, luteolin]")
1.4
>>> result_value("C[C@@H]1O[C@@H](O[C@H]2[C@H](Oc3cc(O)c4c(=O)cc(-c5ccc(O)c(O)c5)oc4c3)O[C@H](CO)[C@@H](O)[C@@H]2O)[C@H](O)[C@H](O)[C@H]1O [Lonicerin, lonicerin]")
226

###

# assay-method-text: Cytotoxicity assay (CCK-8) in RAW264.7 cells
# Format: cell-based, mouse
# experimental-context: mouse, RAW264.7 cells, 5 μmol/L, LPS 100 ng/mL; read-out: Cell viability (%)
measured-attribute: viability at 24 h, 5 μmol/L

>>> result_value("O=c1cc(-c2ccc(O)c(O)c2)oc2cc(O)cc(O)c12")
"170%"
